Where these numbers come from: patent US10017506B2

Assayed target: Human ATX protein (Homo sapiens)
Construct: made in house
Test method notes: ATX biochemical FRET assay with FS-3 substrate
Details: FRET substrate FS-3 2 μM, ATX 1.0 μg/mL, 30 minutes pre-incubation, 2 hours at room temperature; read-out: IC50
pIC50: −log10 of the molar value.
Recorded pIC50 for the following molecules

Here is how some molecules turned out for pIC50.
CC[C@H]1CC[C@@H](Oc2ccc3ccc([C@H](C)N[C@@H]4C[C@H](C(=O)O)C4(C)C)cc3c2C(F)(F)F)CC1 [Example 117b] : ≥ 7.00
CCC(c1ccc2ccc(O[C@H]3CC[C@@H](C(F)(F)F)CC3)c(C(F)(F)F)c2c1)N1CCC(C(=O)O)CC1 (stereo partly shown) : ≥ 6.60

Exam item: Report pIC50 for CC[C@H]1CC[C@@H](Oc2ccc3ccc(C(C)NC45CCC(C(=O)O)(CC4)C5)cc3c2C(F)(F)F)CC1 (stereo partly shown) tested on Human ATX protein (Homo sapiens).
Marked response: ≥ 6.60

Exam item: Report pIC50 for CCC(N[C@H]1CC[C@@H](C(=O)O)CC1)c1ccc2ccc(O[C@H]3CC[C@@H](CC)CC3)c(C(F)(F)F)c2c1 (stereo partly shown) tested on Human ATX protein (Homo sapiens).
Marked response: ≥ 7.00

Exam item: Report pIC50 for CC(N[C@@H]1C[C@H](C(=O)O)C1(C)C)c1ccc2ccc(O[C@H]3CC[C@@H](C(F)(F)F)CC3)c(C(F)(F)F)c2c1 (stereo partly shown) tested on Human ATX protein (Homo sapiens).
Marked response: ≥ 7.00

Exam item: Report pIC50 for C[C@@H](N[C@H]1C[C@@H](C(=O)O)C1(C)C)c1ccc2ccc(O[C@H]3CC[C@@H](C)CC3)c(C(F)(F)F)c2c1 [Example 114d] tested on Human ATX protein (Homo sapiens).
Marked response: ≥ 6.30

Exam item: Report pIC50 for `CC(C)(C)[C@H]1CC[C@H](Nc2cc3cc(C(=O)NC45CCC(C(=O)O)(CC4)CC5)ccc3cn2)CC1` tested on Human ATX protein (Homo sapiens).
Marked response: ≥ 7.00

Exam item: Report pIC50 for CC[C@H]1CC[C@@H](Oc2ccc3ccc([C@@H](C)N[C@H]4C[C@@H](C(=O)O)C4(C)C)cc3c2C(F)(F)F)CC1 [Example 118d] tested on Human ATX protein (Homo sapiens).
Marked response: ≥ 6.30

Exam item: Report pIC50 for CC(c1ccc2ccc(O[C@H]3CC[C@@H](C)CC3)c(C(F)(F)F)c2c1)N1CCC[C@H](CC(=O)O)C1 (stereo partly shown) tested on Human ATX protein (Homo sapiens).
Marked response: ≥ 6.60

Exam item: Report pIC50 for `O=C(O)C1CCN(Cc2ccc3ccc(O[C@H]4CC[C@@H](C(F)(F)F)CC4)c(C(F)(F)F)c3c2)CC1` tested on Human ATX protein (Homo sapiens).
Marked response: ≥ 6.30

* * *

Recorded pIC50 for the following compounds
Assayed target: Human ATX protein (Homo sapiens, UniProt Q13822)
Construct: made in house
Test method notes: ATX biochemical FRET assay with FS-3 substrate
Details: FRET substrate FS-3 2 μM, ATX 1.0 μg/mL, 30 minutes pre-incubation, 2 hours at room temperature; read-out: IC50
pIC50: −log10 of the molar value.

Here is how some compounds turned out for pIC50.
O=C(O)[C@H]1CC[C@@H](NCc2ccc3ccc(O[C@H]4CC[C@@H](C(F)(F)F)CC4)c(C(F)(F)F)c3c2)CC1 : ≥ 6.60
CC(C)(C)[C@H]1CC[C@H](Nc2cc3cc(C(=O)NC4CCCC(C(=O)O)C4)ccc3cn2)CC1 (stereo partly shown) : ≥ 6.60
CC(N[C@H]1CC[C@H](C(=O)O)CC1)c1ccc2ccc(O[C@H]3CC[C@@H](C(F)(F)F)CC3)c(C(F)(F)F)c2c1 (stereo partly shown) : ≥ 6.30

Exam item: Given CC[C@H]1CC[C@@H](Oc2ccc3ccc([C@@H](C)N[C@H]4C[C@H](C(=O)O)C4(C)C)cc3c2C(F)(F)F)CC1 [Example 118c] , state its recorded pIC50.
Marked response: ≥ 6.60

* * *

Recorded pIC50 for the following compounds
Assayed target: Human ATX protein (Homo sapiens)
Construct: made in house
Test method notes: ATX biochemical FRET assay with FS-3 substrate
Details: FRET substrate FS-3 2 μM, ATX 1.0 μg/mL, 30 minutes pre-incubation, 2 hours at room temperature; read-out: IC50
pIC50: −log10 of the molar value.

Here is how some compounds turned out for pIC50.
CC[C@H]1CC[C@@H](Oc2ccc3ccc(C(C)N[C@H]4C[C@@H](C(=O)O)C4(C)C)cc3c2Cl)CC1 (some centres unmarked) [Example 67] : ≥ 6.60
C[C@H](N[C@H]1CC[C@@H](C(=O)O)CC1)c1ccc2ccc(O[C@H]3CC[C@@H](C(F)(F)F)CC3)c(C(F)(F)F)c2c1 [Example 136a] : ≥ 7.00
CC(NC1CC(C(=O)O)C1(C)C)c1ccc2ccc(O[C@H]3CC[C@@H](C)CC3)c(C(F)(F)F)c2c1 (some centres unmarked) [Example 82] : ≥ 7.00

Exam item: Report pIC50 for CCC(N[C@H]1CC[C@@H](C(=O)O)CC1)c1ccc2ccc(O[C@H]3CC[C@@H](C(F)(F)F)CC3)c(C(F)(F)F)c2c1 (some centres unmarked) [Example 147] tested on Human ATX protein (Homo sapiens).
Marked response: ≥ 7.00

Exam item: Report pIC50 for CC[C@H]1CC[C@@H](Oc2ccc3ccc(C(C)NC4CC(C(=O)O)C4(C)C)cc3c2C(F)(F)F)CC1 (some centres unmarked) [Example 59] tested on Human ATX protein (Homo sapiens).
Marked response: ≥ 7.00

Exam item: Report pIC50 for CCC(NC1CC(C(=O)O)C1(C)C)c1ccc2ccc(O[C@H]3CC[C@@H](C)CC3)c(C(F)(F)F)c2c1 (some centres unmarked) [Example 105] tested on Human ATX protein (Homo sapiens).
Marked response: ≥ 7.00

Exam item: Report pIC50 for C[C@@H](N[C@H]1C[C@H](C(=O)O)C1(C)C)c1ccc2ccc(O[C@H]3CC[C@@H](C)CC3)c(C(F)(F)F)c2c1 [Example 114c] tested on Human ATX protein (Homo sapiens).
Marked response: ≥ 7.00

Exam item: Report pIC50 for O=C(O)C1CCCN(Cc2ccc3ccc(O[C@H]4CC[C@@H](C(F)(F)F)CC4)c(C(F)(F)F)c3c2)CC1 (some centres unmarked) [Example 123] tested on Human ATX protein (Homo sapiens).
Marked response: ≥ 6.60

* * *

Assayed target: Human ATX protein (Homo sapiens)
Construct: made in house
Test method notes: ATX biochemical FRET assay with FS-3 substrate
Details: IC50, FRET substrate FS-3 2 μM, ATX 1.0 μg/mL, 30 minutes pre-incubation, 2 hours at room temperature
Recorded IC50 for the following compounds

Here is how some compounds turned out for IC50.
CC[C@H]1CC[C@@H](Oc2ccc3ccc(C(C)N4C5CCC4CC(C(=O)O)C5)cc3c2C(F)F)CC1 (stereo partly shown) : ≤ 100 nM
CC(c1ccc2ccc(O[C@H]3CC[C@@H](C(F)(F)F)CC3)c(C(F)F)c2c1)N1C2CCC1CC(C(=O)O)C2 (stereo partly shown) : ≤ 100 nM
CC[C@H]1CC[C@@H](Oc2ccc3ccc(CN4C5CCCC4CC(C(=O)O)C5)cc3c2Cl)CC1 (relative stereo) : ≤ 100 nM
CCC(c1ccc2ccc(O[C@H]3CC[C@@H](C)CC3)c(C(F)(F)F)c2c1)N1C2CCC1CC(C(=O)O)C2 (relative stereo) : ≤ 250 nM
CC(c1ccc2ccc(O[C@H]3CC[C@@H](C(F)(F)F)CC3)c(C(F)(F)F)c2c1)N1C2CCCC1CC(C(=O)O)C2 (stereo partly shown) : ≤ 100 nM

From here, focus on the item given below.
Exam item: Given CC(c1ccc2ccc(O[C@H]3CC[C@@H](C)CC3)c(C(F)F)c2c1)N1C2CCCC1CC(C(=O)O)C2 (stereo partly shown) , state its recorded IC50.
Marked response: ≤ 100 nM

* * *

Recorded pIC50 for the following compounds
Assayed target: Human ATX protein (Homo sapiens)
Construct: made in house
Test method notes: ATX biochemical FRET assay with FS-3 substrate
Details: IC50, FRET substrate FS-3 2 μM, ATX 1.0 μg/mL, 30 minutes pre-incubation, 2 hours at room temperature
pIC50: −log10 of the molar value.

Here is how some compounds turned out for pIC50.
CC[C@H]1CC[C@@H](Oc2ccc3ccc(C(C)N4C5CCC4CC(C(=O)O)C5)cc3c2C(F)(F)F)CC1 (stereo partly drawn) [Example 55] : ≥ 7.00
CC(c1ccc2ccc(O[C@H]3CC[C@@H](C(F)(F)F)CC3)c(Cl)c2c1)N1C2CCC1CC(C(=O)O)C2 (stereo partly drawn) [Example 29] : ≥ 6.60
CC[C@H]1CC[C@@H](Oc2ccc3ccc(CN4C5CCC4CC(C(=O)O)C5)cc3c2Cl)CC1 (stereo partly drawn) [Example 48] : ≥ 7.00
CC[C@H]1CC[C@@H](Oc2ccc3ccc(C(C)N4C5CCCC4CC(C(=O)O)C5)cc3c2C(F)(F)F)CC1 (stereo partly drawn) [Example 56] : ≥ 7.00
CCC(c1ccc2ccc(O[C@H]3CC[C@@H](C(F)(F)F)CC3)c(C#N)c2c1)N1C2CCCC1CC(C(=O)O)C2 (stereo partly drawn) [Example 41] : ≥ 6.60

From here, focus on the item given below.
Exam item: Given C[C@H]1CC[C@@H](Oc2ccc3ccc(C(=O)N4C5CCCC4CC(C(=O)O)C5)cc3c2C(F)(F)F)CC1 (stereo partly drawn) [Example 13] , state its recorded pIC50.
Marked response: ≥ 6.30
